Measured values drawn from paper PMC10397247 for this set.

Target: T1, O14-AA
T1 chain: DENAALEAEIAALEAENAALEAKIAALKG
Experiment: two-hybrid library CCmax;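 further: natural log of median RNA to DNA barcode read ratio; higher means stronger binding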
Details: mean of both orientations
Label class 1 when interaction score is strictly below 0.5; otherwise label class 0.

Record excerpt, results attached:
- Binder: "DENAALEAENAALEAKIAALKAEIAALEG [4H1193-AA]"
  Classification: "class 1"
- Binder: "DEIAALEAKIAALKAENAALEAEIAALEG [4H337-AA]"
  Classification: "class 0"
- Binder: "DEIAALEAKNAALKAKNAALKAKIAALKG [4H510-AA]"
  Classification: "class 0"

Lookup: For DKIAALKAKNAALKAKIAALKAEIAALEG [4H3049-AA] , is the recorded interaction score below the cut-off of 0.5?
Found: class 0

Lookup: For DENAALEAKIAALKAKIAALKAKNAALKG [4H1392-AA] , is the recorded interaction score below the cut-off of 0.5?
Found: class 1

Lookup: For DENAALEAEIAALEAKIAALKAKIAALKG [4H1070-AA] , is the recorded interaction score below the cut-off of 0.5?
Found: class 1

Lookup: For DKIAALKAEIAALEAENAALEAENAALEG [O11-AA] , is the recorded interaction score below the cut-off of 0.5?
Found: class 1

Lookup: For DENAALEAKIAALKAEIAALEAKIAALKG [4H1350-AA] , is the recorded interaction score below the cut-off of 0.5?
Found: class 1

Lookup: For DKNAALKAEIAALEAKIAALKAEIAALEG [4H3625-AA] , is the recorded interaction score below the cut-off of 0.5?
Found: class 0

Lookup: For DKIAALKAKNAALKAEIAALEAKNAALKG [4H3016-AA] , is the recorded interaction score below the cut-off of 0.5?
Found: class 0

Lookup: For DKNAALKAKIAALKAEIAALEAEIAALEG [4H3905-AA] , is the recorded interaction score below the cut-off of 0.5?
Found: class 0

Lookup: For DEIAALEAKIAALKAKNAALKAKNAALKG [4H384-AA] , is the recorded interaction score below the cut-off of 0.5?
Found: class 0

Lookup: For DKIAALKAENAALEAENAALEAEIAALEG [4H2705-AA] , is the recorded interaction score below the cut-off of 0.5?
Found: class 1

Lookup: For DEIAALEAENAALEAKIAALKAENAALEG [4H171-AA] , is the recorded interaction score below the cut-off of 0.5?
Found: class 1
